assay: AUC (0 to t) in fasted Sprague-Dawley rat at 1 mg/kg, iv measured for 24 hrs; type: ADME, organism-based; parameters: dose 1 mg/kg, time 24 hrs, route iv; conditions: in vivo
quantity kind: AUC(0-t) at 24 h (ng·h/mL)

compound	quantity kind	observed value
NC(=O)[C@@H]1CCN1Cc1ccc2oc(-c3cccc(F)c3)cc2c1	AUC(0-t) at 24 h	188
NC(=O)[C@@H]1C[C@H](F)CN1Cc1ccc2oc(-c3cccc(F)c3)cc2c1	AUC(0-t) at 24 h	250
C[C@H](NCc1ccc(OCc2cccc(F)c2)cc1)C(N)=O [SAFINAMIDE]	AUC(0-t) at 24 h	233
NC(=O)[C@@H]1CCN1Cc1ccc2oc(-c3ccccc3F)cc2c1	AUC(0-t) at 24 h	155
NC(=O)[C@@H]1C[C@H](F)CN1Cc1ccc2oc(-c3ccc(F)cc3)cc2c1	AUC(0-t) at 24 h	305
NC(=O)[C@@H]1CCN1Cc1ccc2oc(-c3ccc(F)cc3)cc2c1	AUC(0-t) at 24 h	161

---

# Cmax per record follows
assay: Cmax in fasted Sprague-Dawley rat at 1 mg/kg, iv measured for 24 hrs; type: ADME, organism-based; design: dose 1 mg/kg, time 24 hrs, route iv; settings: Sprague-Dawley, in vivo, read-out: Cmax

compound	Cmax, ng/mL
NC(=O)[C@@H]1CCN1Cc1ccc2oc(-c3ccccc3F)cc2c1	360
NC(=O)[C@@H]1CCN1Cc1ccc2oc(-c3ccc(F)cc3)cc2c1	213
NC(=O)[C@@H]1C[C@H](F)CN1Cc1ccc2oc(-c3cccc(F)c3)cc2c1	237
NC(=O)[C@@H]1C[C@H](F)CN1Cc1ccc2oc(-c3ccc(F)cc3)cc2c1	273
C[C@H](NCc1ccc(OCc2cccc(F)c2)cc1)C(N)=O [SAFINAMIDE]	244
NC(=O)[C@@H]1CCN1Cc1ccc2oc(-c3cccc(F)c3)cc2c1	204

---

assay: Ratio of drug concentration in Sprague-Dawley brain to plasma at 5 mg/kg, ip measured after 15 mins by LC-MS/MS analysis; assay type: ADME, organism-based; settings: rat, read-out: BPR
quantity kind: Kp at 0.25 h

molecule	quantity kind	observed value
C[C@H](NCc1ccc(OCc2cccc(F)c2)cc1)C(N)=O [SAFINAMIDE]	Kp at 0.25 h	10.7
NC(=O)[C@@H]1C[C@H](F)CN1Cc1ccc2oc(-c3ccc(F)cc3)cc2c1	Kp at 0.25 h	10.4

---

assay: Apparent permeability across apical to basolateral side in MDCKII-MDR1 cells at 10 uM incubated for 30 mins by LC-MS/MS analysis; format: ADME, cell-based, Canis lupus familiaris; conditions: dog, MDCK-MDR1

compound structure string	Papp A→B at 0.5 h, 10 µM / ×10⁻⁶ cm/s
NC(=O)[C@@H]1C[C@H](F)CN1Cc1ccc2oc(-c3ccc(F)cc3)cc2c1	8.78

---

experiment: Metabolic stability in dog liver microsomes assessed as intrinsic clearance at 1 uM incubated for 60 mins in presence of NADPH by LC-MS/MS analysis; assay type: ADME, Canis lupus familiaris, Microsome; conditions: read-out: CLH

compound	CLint scaled at 1 µM, mL/min/kg
C[C@H](NCc1ccc(OCc2cccc(F)c2)cc1)C(N)=O [SAFINAMIDE]	43.2
NC(=O)[C@@H]1C[C@H](F)CN1Cc1ccc2oc(-c3ccc(F)cc3)cc2c1	7.5

---

assay: Metabolic stability in monkey liver microsomes assessed as half life at 1 uM incubated for 60 mins in presence of NADPH by LC-MS/MS analysis; format: ADME, Macaca mulatta, Microsome; conditions: rhesus monkey
quantity kind: half-life at 1 µM (h)

compound structure string	observed value
NC(=O)[C@@H]1C[C@H](F)CN1Cc1ccc2oc(-c3ccc(F)cc3)cc2c1	5.63

---

test: Metabolic stability in dog liver microsomes assessed as half life at 1 uM incubated for 60 mins in presence of NADPH by LC-MS/MS analysis; type: ADME, Canis lupus familiaris, Microsome
quantity kind: half-life at 1 µM (h)

molecule	observed value
C[C@H](NCc1ccc(OCc2cccc(F)c2)cc1)C(N)=O [SAFINAMIDE]	1.1
NC(=O)[C@@H]1C[C@H](F)CN1Cc1ccc2oc(-c3ccc(F)cc3)cc2c1	2.45

---

test: Drug concentration in Sprague-Dawley rat plasma at 5 mg/kg, ip measured after 15 mins by LC-MS/MS analysis; assay type: ADME, organism-based
In this section, each of the molecules is paired with its reported concentration at 0.25 h.
quantity kind: concentration at 0.25 h (ng/mL)

molecule	observed value
C[C@H](NCc1ccc(OCc2cccc(F)c2)cc1)C(N)=O [SAFINAMIDE]	371
NC(=O)[C@@H]1C[C@H](F)CN1Cc1ccc2oc(-c3ccc(F)cc3)cc2c1	536

---

target: CYP1A2 (Homo sapiens); assay: Inhibition of CYP1A2 in human liver microsomes using ethoxyresorufin as substrate at 10 uM incubated for 10 mins in presence of NADPH by LC-MS/MS analysis relative to control; format: ADME, Microsome; details: probe ethoxyresorufin
Sequence (P05177 whole entry): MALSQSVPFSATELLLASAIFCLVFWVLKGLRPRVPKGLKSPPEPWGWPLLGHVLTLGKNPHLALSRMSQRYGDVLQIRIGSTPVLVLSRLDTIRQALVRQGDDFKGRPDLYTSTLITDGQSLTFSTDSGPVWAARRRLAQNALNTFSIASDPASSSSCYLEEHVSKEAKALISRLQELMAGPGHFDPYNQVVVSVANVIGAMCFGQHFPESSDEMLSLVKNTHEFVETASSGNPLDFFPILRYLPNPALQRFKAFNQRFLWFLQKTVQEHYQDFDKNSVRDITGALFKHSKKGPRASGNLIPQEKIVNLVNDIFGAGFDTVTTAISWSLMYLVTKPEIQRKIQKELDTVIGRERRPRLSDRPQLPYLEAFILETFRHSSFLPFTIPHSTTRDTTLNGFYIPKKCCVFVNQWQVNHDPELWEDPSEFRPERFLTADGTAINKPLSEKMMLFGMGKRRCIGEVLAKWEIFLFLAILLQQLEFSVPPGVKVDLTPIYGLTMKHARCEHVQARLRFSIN
quantity kind: inhibition at 10 min, 10 µM

compound structure string	tested system	observed value
NC(=O)[C@@H]1C[C@H](F)CN1Cc1ccc2oc(-c3ccc(F)cc3)cc2c1	CYP1A2 (Homo sapiens)	32.6%

---

assay: Elimination half life in fasted Sprague-Dawley rat at 1 mg/kg, iv measured for 24 hrs; assay type: ADME, organism-based; conditions: in vivo, read-out: beta t1/2 (converted)
Give rule met when the value for half-life is at least 40 min. Give rule not met when it is less.

compound	class label
NC(=O)[C@@H]1CCN1Cc1ccc2oc(-c3ccc(F)cc3)cc2c1	rule not met
NC(=O)[C@@H]1CCN1Cc1ccc2oc(-c3cccc(F)c3)cc2c1	rule met
C[C@H](NCc1ccc(OCc2cccc(F)c2)cc1)C(N)=O [SAFINAMIDE]	rule met
NC(=O)[C@@H]1C[C@H](F)CN1Cc1ccc2oc(-c3ccc(F)cc3)cc2c1	rule met
NC(=O)[C@@H]1CCN1Cc1ccc2oc(-c3ccccc3F)cc2c1	rule not met
NC(=O)[C@@H]1C[C@H](F)CN1Cc1ccc2oc(-c3cccc(F)c3)cc2c1	rule met

---

assay: Drug concentration in Sprague-Dawley rat brain at 5 mg/kg, ip measured after 120 mins by LC-MS/MS analysis; assay type: ADME, organism-based; details: read-out: Ct
molecules and their reported concentration at 2 h
quantity kind: concentration at 2 h (ng/g)

molecule	unit string	observed value
NC(=O)[C@@H]1C[C@H](F)CN1Cc1ccc2oc(-c3ccc(F)cc3)cc2c1	ng/g	7090
C[C@H](NCc1ccc(OCc2cccc(F)c2)cc1)C(N)=O [SAFINAMIDE]	ng/g	2170

---

molecular target: CYP2C9 (Homo sapiens, UniProt P11712); experiment: Inhibition of CYP2C9 in human liver microsomes using diclofenac as substrate at 10 uM incubated for 10 mins in presence of NADPH by LC-MS/MS analysis relative to control; type: ADME, Microsome; details: probe diclofenac
Sequence (P11712 whole entry): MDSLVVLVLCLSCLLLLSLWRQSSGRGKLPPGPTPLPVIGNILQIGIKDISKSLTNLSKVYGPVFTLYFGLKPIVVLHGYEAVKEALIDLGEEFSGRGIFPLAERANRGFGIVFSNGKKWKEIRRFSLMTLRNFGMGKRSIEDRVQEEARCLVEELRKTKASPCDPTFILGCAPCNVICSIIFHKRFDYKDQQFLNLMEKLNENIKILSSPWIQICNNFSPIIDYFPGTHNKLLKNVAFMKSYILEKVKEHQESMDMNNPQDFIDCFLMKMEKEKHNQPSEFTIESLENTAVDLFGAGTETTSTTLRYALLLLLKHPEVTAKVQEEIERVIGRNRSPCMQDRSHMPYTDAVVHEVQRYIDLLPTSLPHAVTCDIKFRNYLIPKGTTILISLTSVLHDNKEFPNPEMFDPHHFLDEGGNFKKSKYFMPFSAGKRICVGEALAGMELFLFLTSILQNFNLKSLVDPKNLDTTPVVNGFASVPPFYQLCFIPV
quantity kind: inhibition at 10 min, 10 µM (%)

compound structure string	unit string	observed value
NC(=O)[C@@H]1C[C@H](F)CN1Cc1ccc2oc(-c3ccc(F)cc3)cc2c1	%	8.05

---

# half-life at 1 µM annotations
assay: Metabolic stability in human liver microsomes assessed as half life at 1 uM incubated for 60 mins in presence of NADPH by LC-MS/MS analysis; format: ADME, Microsome
quantity kind: half-life at 1 µM (h)

compound	quantity kind	unit string	observed value
NC(=O)[C@@H]1C[C@H](F)CN1Cc1ccc2oc(-c3ccc(F)cc3)cc2c1	half-life at 1 µM	h	10.4
C[C@H](NCc1ccc(OCc2cccc(F)c2)cc1)C(N)=O [SAFINAMIDE]	half-life at 1 µM	h	8.94

---

target: CYP3A4 (Homo sapiens, UniProt P08684); test: Inhibition of CYP3A4 in human liver microsomes using midazolam as substrate at 10 uM incubated for 5 mins in presence of NADPH by LC-MS/MS analysis relative to control; assay type: ADME, Microsome; conditions: probe midazolam
Sequence (P08684 whole entry): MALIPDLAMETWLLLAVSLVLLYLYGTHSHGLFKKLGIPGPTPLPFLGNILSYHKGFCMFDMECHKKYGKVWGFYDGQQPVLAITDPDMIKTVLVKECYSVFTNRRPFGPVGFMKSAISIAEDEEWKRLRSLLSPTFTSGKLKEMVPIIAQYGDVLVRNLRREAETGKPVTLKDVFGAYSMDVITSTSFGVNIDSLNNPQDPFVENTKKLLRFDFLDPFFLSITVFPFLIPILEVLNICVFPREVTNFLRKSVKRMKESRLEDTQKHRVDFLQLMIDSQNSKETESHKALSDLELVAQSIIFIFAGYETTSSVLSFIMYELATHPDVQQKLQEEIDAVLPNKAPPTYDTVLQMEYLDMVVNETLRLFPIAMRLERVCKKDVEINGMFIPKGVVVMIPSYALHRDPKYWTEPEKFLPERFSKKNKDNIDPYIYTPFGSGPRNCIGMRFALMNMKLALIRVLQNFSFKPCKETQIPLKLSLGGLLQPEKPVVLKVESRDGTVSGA

compound structure string	inhibition at 5 min, 10 µM, %
NC(=O)[C@@H]1C[C@H](F)CN1Cc1ccc2oc(-c3ccc(F)cc3)cc2c1	-45.2

---

target: Voltage-gated inwardly rectifying potassium channel KCNH2 (Homo sapiens); assay: Inhibition of hERG transfected in CHO-K1 cells at -80 mV holding potential incubated for 2 mins by patch clamp assay
Sequence (Q12809 whole entry): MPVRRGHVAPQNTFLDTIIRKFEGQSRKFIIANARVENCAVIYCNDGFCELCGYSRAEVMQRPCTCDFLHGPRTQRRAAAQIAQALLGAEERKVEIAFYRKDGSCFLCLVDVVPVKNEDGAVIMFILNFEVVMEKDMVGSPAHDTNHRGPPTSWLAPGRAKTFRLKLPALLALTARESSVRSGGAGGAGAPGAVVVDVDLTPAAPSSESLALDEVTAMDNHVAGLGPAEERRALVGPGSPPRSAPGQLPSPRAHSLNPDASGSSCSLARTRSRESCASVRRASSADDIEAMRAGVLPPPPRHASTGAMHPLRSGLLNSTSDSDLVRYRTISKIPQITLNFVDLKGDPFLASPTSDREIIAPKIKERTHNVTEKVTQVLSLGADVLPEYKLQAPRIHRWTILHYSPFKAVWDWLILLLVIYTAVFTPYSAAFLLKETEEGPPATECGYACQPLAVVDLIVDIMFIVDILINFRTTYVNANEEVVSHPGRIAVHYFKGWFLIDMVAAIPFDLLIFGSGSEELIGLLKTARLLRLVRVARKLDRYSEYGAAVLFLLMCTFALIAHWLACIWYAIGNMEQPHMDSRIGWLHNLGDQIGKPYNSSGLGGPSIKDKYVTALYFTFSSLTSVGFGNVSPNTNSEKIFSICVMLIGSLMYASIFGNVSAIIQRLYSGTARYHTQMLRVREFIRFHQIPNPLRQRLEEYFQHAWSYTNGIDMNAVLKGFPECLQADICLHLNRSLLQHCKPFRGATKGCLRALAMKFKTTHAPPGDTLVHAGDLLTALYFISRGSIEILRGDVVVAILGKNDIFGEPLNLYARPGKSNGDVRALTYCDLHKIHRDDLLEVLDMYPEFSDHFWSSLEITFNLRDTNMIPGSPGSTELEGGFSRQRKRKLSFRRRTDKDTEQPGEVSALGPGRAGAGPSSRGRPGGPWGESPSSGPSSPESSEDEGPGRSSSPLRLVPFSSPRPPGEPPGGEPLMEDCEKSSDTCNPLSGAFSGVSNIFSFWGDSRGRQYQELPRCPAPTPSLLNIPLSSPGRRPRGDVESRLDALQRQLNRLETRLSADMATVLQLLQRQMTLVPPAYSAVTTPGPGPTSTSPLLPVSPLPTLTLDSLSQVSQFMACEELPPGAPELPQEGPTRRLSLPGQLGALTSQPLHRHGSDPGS

compound structure string	IC50
NC(=O)[C@@H]1C[C@H](F)CN1Cc1ccc2oc(-c3ccc(F)cc3)cc2c1	> 30 µM

---

Target: CYP2B6 (Homo sapiens, UniProt P20813)
Sequence (P20813 whole entry): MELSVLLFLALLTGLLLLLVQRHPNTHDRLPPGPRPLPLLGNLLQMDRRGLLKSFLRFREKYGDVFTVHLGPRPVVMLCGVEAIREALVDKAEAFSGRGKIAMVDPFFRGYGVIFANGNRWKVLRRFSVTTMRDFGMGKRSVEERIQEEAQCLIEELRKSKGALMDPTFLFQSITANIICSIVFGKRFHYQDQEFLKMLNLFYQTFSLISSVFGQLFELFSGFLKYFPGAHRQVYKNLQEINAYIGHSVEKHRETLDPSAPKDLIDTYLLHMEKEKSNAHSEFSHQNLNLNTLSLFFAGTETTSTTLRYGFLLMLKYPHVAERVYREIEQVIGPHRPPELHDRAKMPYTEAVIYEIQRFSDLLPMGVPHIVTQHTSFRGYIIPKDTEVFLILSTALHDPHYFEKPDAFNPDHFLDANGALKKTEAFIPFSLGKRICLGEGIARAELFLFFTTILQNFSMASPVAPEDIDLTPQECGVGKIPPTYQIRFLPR
Assay: Inhibition of CYP2B6 in human liver microsomes using bupropion as substrate at 10 uM incubated for 10 mins in presence of NADPH by LC-MS/MS analysis relative to control
Format: ADME, Microsome
Conditions: probe bupropion

compound structure string	inhibition at 10 min, 10 µM / %
NC(=O)[C@@H]1C[C@H](F)CN1Cc1ccc2oc(-c3ccc(F)cc3)cc2c1	41.2
